- Tested on: MCF7
- assay-info: Cytotoxicity against human MCF7 cells after 48 hrs by MTT assay
- Type: functional
- assay-setup: MCF7, 48 h, read-out: LC50 (the source's name)
measured-parameter: CC50 (µM)
Numbers only, in µM.

Look over these answered cases.
{"columns": ["molecule", "measured-on", "CC50, µM"],
 "data": [
  ["C=C1CC[C@@H]2[C@](C)(CO)[C@H](O)CC[C@@]2(C)[C@@H]1C/C=C1/C(=O)OC[C@H]1OC(=O)CI", "MCF7", 6],
  ["C[C@]1(CO)[C@H]2CC[C@@]3(CO3)[C@@H](C/C=C3/C(=O)OC[C@H]3OC(=O)CI)[C@]2(C)CC[C@H]1O", "MCF7", 7]
]}

// batch mode: one CC50 value per listed entry
1. C=C1CC[C@@H]2[C@](C)(CO)[C@H](O)CC[C@@]2(C)[C@@H]1C/C=C1/C(=O)OC[C@H]1OC(=O)CBr
2. C=C1CC[C@@H]2[C@](C)(CO)[C@H](O)CC[C@@]2(C)[C@@H]1C/C=C1/C(=O)OC[C@H]1O [ANDROGRAPHOLIDE]

Result:
[8.4, 16]

---

- assay-info: Retention time of the compound by HPLC method
- Type: physicochemical
For each record, write down the corresponding Retention_time.
Enter the number, and then the unit.

Below are worked cases with known answers.
{"columns": ["compound-structure", "Retention_time"],
 "data": [
  ["C[C@]1(CO)[C@H]2CC[C@@]3(CO3)[C@@H](C/C=C3/C(=O)OC[C@H]3OC(=O)CCl)[C@]2(C)CC[C@H]1O", "37.1 min"],
  ["C[C@]1(CO)[C@H]2CC[C@]3(CO3)[C@@H](C/C=C3/C(=O)OC[C@H]3OC(=O)CI)[C@]2(C)CC[C@H]1O", "30.2 min"],
  ["C[C@]1(CO)[C@H]2CC[C@]3(CO3)[C@@H](C/C=C3/C(=O)OC[C@H]3OC(=O)CBr)[C@]2(C)CC[C@H]1O", "27.2 min"],
  ["C[C@]1(CO)[C@H]2CC[C@@]3(CO3)[C@@H](C/C=C3/C(=O)OC[C@H]3OC(=O)CI)[C@]2(C)CC[C@H]1O", "31.4 min"],
  ["C=C1CC[C@@H]2[C@](C)(CO)[C@H](O)CC[C@@]2(C)[C@@H]1C/C=C1/C(=O)OC[C@H]1OC(=O)CI", "26.9 min"],
  ["C[C@]1(CO)[C@H]2CC[C@]3(CO3)[C@@H](C/C=C3/C(=O)OC[C@H]3OC(=O)CCl)[C@]2(C)CC[C@H]1O", "36.5 min"],
  ["C=C1CC[C@@H]2[C@](C)(CO)[C@H](O)CC[C@@]2(C)[C@@H]1C/C=C1/C(=O)OC[C@H]1OC(=O)CCl", "23.2 min"],
  ["C[C@]1(CO)[C@H]2CC[C@@]3(CO3)[C@@H](C/C=C3/C(=O)OC[C@H]3OC(=O)CBr)[C@]2(C)CC[C@H]1O", "27.8 min"]
]}

Next, consider the following compound.
// sample C=C1CC[C@@H]2[C@](C)(CO)[C@H](O)CC[C@@]2(C)[C@@H]1C/C=C1/C(=O)OC[C@H]1OC(=O)CBr , its Retention_time was 24.5 min

---

Exercise: state measured LC50 for each of the compounds provided.
- Test system: Vero
- assay-info: Cytotoxicity against african green monkey Vero cells after 48 hrs by MTT assay
- Assay type: cell-based
- assay-setup: chlorocebus sabaeus

Quick batch: LC50 for everything below.
1. C=C1CC[C@@H]2[C@](C)(CO)[C@H](O)CC[C@@]2(C)[C@@H]1C/C=C1/C(=O)OC[C@H]1O [ANDROGRAPHOLIDE]
2. C=C1CC[C@@H]2[C@](C)(CO)[C@H](O)CC[C@@]2(C)[C@@H]1C/C=C1/C(=O)OC[C@H]1OC(=O)CI
3. C=C1CC[C@@H]2[C@]3(C)COC(C)(C)O[C@@H]3CC[C@@]2(C)[C@@H]1C/C=C1/C(=O)OC[C@H]1OC(=O)CI
4. C=C1CC[C@@H]2[C@](C)(CO)[C@H](O)CC[C@@]2(C)[C@@H]1C/C=C1/C(=O)OC[C@H]1OC(=O)CBr
5. COc1cc([C@@H]2c3cc4c(cc3[C@@H](O[C@@H]3O[C@@H]5CO[C@@H](C)O[C@H]5[C@H](O)[C@H]3O)[C@H]3COC(=O)[C@H]23)OCO4)cc(OC)c1O [ETOPOSIDE]
6. C[C@]1(CO)[C@H]2CC[C@]3(CO3)[C@@H](C/C=C3/C(=O)OC[C@H]3OC(=O)CCl)[C@]2(C)CC[C@H]1O
7. C[C@]1(CO)[C@H]2CC[C@@]3(CO3)[C@@H](C/C=C3/C(=O)OC[C@H]3OC(=O)CBr)[C@]2(C)CC[C@H]1O
8. C=C1CC[C@@H]2[C@](C)(CO)[C@H](O)CC[C@@]2(C)[C@@H]1C/C=C1/C(=O)OC[C@H]1OC(=O)CCl

Result:
1. < 40 µM
2. 45 µM
3. 48 µM
4. 45 µM
5. 28 µM
6. 43 µM
7. 29 µM
8. 25 µM

// each compound listed below needs its LC50
1. C=C1CC[C@@H]2[C@]3(C)COC(C)(C)O[C@@H]3CC[C@@]2(C)[C@@H]1C/C=C1/C(=O)OC[C@H]1OC(=O)CBr
2. C[C@]1(CO)[C@H]2CC[C@@]3(CO3)[C@@H](C/C=C3/C(=O)OC[C@H]3OC(=O)CCl)[C@]2(C)CC[C@H]1O
3. C=C1CC[C@@H]2[C@]3(C)COC(C)(C)O[C@@H]3CC[C@@]2(C)[C@@H]1C/C=C1/C(=O)OC[C@H]1OC(=O)CCl

Result:
1. 36 µM
2. 37 µM
3. 42 µM

Hey, can you go through the list below and give me LC50 for every item?
1. C[C@]1(CO)[C@H]2CC[C@]3(CO3)[C@@H](C/C=C3/C(=O)OC[C@H]3OC(=O)CBr)[C@]2(C)CC[C@H]1O
2. C[C@]1(CO)[C@H]2CC[C@@]3(CO3)[C@@H](C/C=C3/C(=O)OC[C@H]3OC(=O)CI)[C@]2(C)CC[C@H]1O

Result:
["32 µM", "30 µM"]

Briefly, LC50 measured for C[C@]1(CO)[C@H]2CC[C@]3(CO3)[C@@H](C/C=C3/C(=O)OC[C@H]3OC(=O)CI)[C@]2(C)CC[C@H]1O : 42 µM
